Values compiled from patent US20070299092A1.

system.tested: human KDR (VEGF-receptor-2) (Homo sapiens, UniProt P35968)
Construct: beginning at Met-806; (5′-ATG GAT CCA GAT GM CTC CCA TTG) and ending at Val-1356; made in house
Sequence (P35968 806-1356): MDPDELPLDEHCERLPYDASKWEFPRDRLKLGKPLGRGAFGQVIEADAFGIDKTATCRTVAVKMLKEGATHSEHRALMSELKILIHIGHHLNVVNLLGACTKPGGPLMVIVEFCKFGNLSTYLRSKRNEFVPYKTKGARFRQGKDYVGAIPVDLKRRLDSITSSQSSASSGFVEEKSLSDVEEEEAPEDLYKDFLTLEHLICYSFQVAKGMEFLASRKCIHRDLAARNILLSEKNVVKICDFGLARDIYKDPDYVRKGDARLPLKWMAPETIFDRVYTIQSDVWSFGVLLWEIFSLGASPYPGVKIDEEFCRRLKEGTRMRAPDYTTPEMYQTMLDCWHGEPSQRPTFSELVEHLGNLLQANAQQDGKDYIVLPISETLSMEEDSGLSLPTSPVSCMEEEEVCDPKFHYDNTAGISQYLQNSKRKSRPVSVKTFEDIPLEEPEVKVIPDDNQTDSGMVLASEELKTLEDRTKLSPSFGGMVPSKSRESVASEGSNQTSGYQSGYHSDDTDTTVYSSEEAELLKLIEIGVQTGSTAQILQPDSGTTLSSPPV
measurement.protocol: KDR kinase enzyme assay (DELFIA, KDR-IC-Flag, poly(Glu4-Tyr) peptide)
Format: biochemical
experimental.setup: ATP conc. 10 μM
pIC50: −log10 of the molar value.
measurement.kind: pIC50

Record excerpt, results attached:
| molecule | pIC50 |
| --- | --- |
| COCCOc1cc2ncc(C#N)c(NC3=CC(=O)C(Oc4ccccc4)=CC3=O)c2cc1OC | 6.56 |
| COCCOc1cc2ncnc(NC3=CC(=O)C(Oc4ccc(C(C)(C)c5ccccc5)cc4)=CC3=O)c2cc1OC | 7.21 |
| COCCOc1cc2ncnc(NC3=CC(=O)C(Oc4ccc(C(=O)c5ccccc5)cc4)=CC3=O)c2cc1OC | 8.46 |

(I) COc1cc2ncnc(NC3=CC(=O)C(Nc4ccccc4)=CC3=O)c2cc1OC
(II) CCOC(=O)c1c(C)[nH]c2ccc(OC3=CC(=O)C(Nc4ncnc5cc(OCCOC)c(OC)cc45)=CC3=O)cc12
Of the two listed items, which has the higher pIC50? First: I Second: II Your answer should be the label attached to the chosen record.
II

(a) COc1cc2ncnc(NC3=CC(=O)C(Oc4ccccc4)=CC3=O)c2cc1OC
(b) COCCOc1cc2ncnc(NC3=CC(=O)C(Oc4cccc(C(F)(F)F)c4)=CC3=O)c2cc1OC
(c) COCCOc1cc2ncnc(NC3=CC(=O)C4(C)OC4C3=O)c2cc1OC (stereo not shown)
Task for the reader: rank each entry by its pIC50, from the minimum upward. # list labels per requested ordering
c, b, a

(1) COCCOc1cc2ncnc(NC3=CC(=O)C(Oc4ccc5c(c4)[nH]c4ccccc45)=CC3=O)c2cc1OC
(2) COc1cc2ncnc(NC3=CC(=O)C(Oc4ccc(Cl)cc4)=CC3=O)c2cc1OC
Which entry has a larger number for pIC50, 1 or 2 ? Response format: the label of the selected entry.
1

(I) COCCOc1cc2ncnc(NC3=CC(=O)C(Sc4nccs4)=C(OC)C3=O)c2cc1OC
(II) COc1cc2ncnc(NC3=CC(=O)C(Cl)=CC3=O)c2cc1OC
(III) COCCOc1cc2ncnc(NC3=CC(=O)C(N(C)C4CCCCC4)=CC3=O)c2cc1OC
(IV) COCCOc1cc2ncnc(NC3=CC(=O)C(N(C)c4ccc(N(C)C)cc4)=CC3=O)c2cc1OC
Hey, can you sort those molecules up there by pIC50, smallest first? # list labels per requested ordering
III, IV, I, II

---

Here the recorded melting point is given for each entry.

| compound | reported.result |
| --- | --- |
| COCCOc1cc2ncnc(NC3=CC(=O)C(N(C)C4CCCCC4)=CC3=O)c2cc1OC | 178 to 180 °C |
| COc1cc2ncnc(NC3=CC(=O)C4(c5ccccc5)OC4C3=O)c2cc1OC (stereo not drawn) | 252 to 253 °C |
| CNC1=CC(=O)C(Nc2ncnc3cc(OC)c(OC)cc23)=CC1=O | 283 to 285 °C |
| COc1cc2ncnc(NC3=CC(=O)C(Nc4ccccc4)=CC3=O)c2cc1OC | 258 to 261 °C |
| COCCOc1cc2ncnc(NC3=CC(=O)C(N4CCCCC4)=CC3=O)c2cc1OC | 197 to 200 °C |
| COCCOc1cc2ncnc(NC3=CC(=O)C(Oc4ccc(C)cc4)=CC3=O)c2cc1OC | 171 to 172 °C |

Dear colleague, I am looking for the recorded melting point of the following compound: COCCOc1cc2ncnc(NC3=CC(=O)C(Oc4ccccc4)=CC3=O)c2cc1OC
177 to 180 °C

What melting point value was documented for this compound, COc1cc2ncnc(NC3=CC(=O)C(N(C)c4ccccc4)=CC3=O)c2cc1OC ?
204 to 206 °C

What value of melting point has been reported for the following compound? COCCOc1cc2ncnc(NC3=CC(=O)C(Oc4ccccc4C)=CC3=O)c2cc1OC
134 to 137 °C
